Tested on: P. aeruginosa AUMC-Pa-4
Experiment: microbe, parasite or virus in culture
Conditions: strain AUMC-Pa-4; antibiotic + D-11 (MICb/MICbc 128/4)
Lab note: compare FICI with 0.3, writing 1 if less and -1 if equal or more.

compound: CO[C@H]1[C@H](OC(=O)c2ccc(C)[nH]2)[C@H](O)[C@@H](Oc2ccc3c(O)c(NC(=O)c4c[nH]c(C(=O)Nc5c(O)c6ccc(O[C@H]7OC(C)(C)[C@@H](OC)[C@H](OC(=O)c8ccc(C)[nH]8)[C@@H]7O)c(C)c6oc5=O)c4C)c(=O)oc3c2C)OC1(C)C
category-label: 1
//
compound: C[C@@H]1O[C@@H]1P(=O)(O)O
category-label: -1
//
compound: C[C@@H](O)[C@H]1C(=O)N2C(C(=O)O)=C(S[C@@H]3CN[C@H](C(=O)N(C)C)C3)[C@H](C)[C@H]12
category-label: -1
//
compound: CN(C)[C@@H]1C(O)=C(C(N)=O)C(=O)[C@@]2(O)C(O)=C3C(=O)c4c(O)c(NC(=O)CN5CCCC5)cc(F)c4C[C@H]3C[C@@H]12
category-label: 1
//
compound: CC[C@H]1OC(=O)[C@H](C)[C@@H](O[C@H]2C[C@@](C)(OC)[C@@H](O)[C@H](C)O2)[C@H](C)[C@@H](O[C@@H]2O[C@H](C)C[C@H](N(C)C)[C@H]2O)[C@](C)(O)C[C@@H](C)CN(C)[C@H](C)[C@@H](O)[C@]1(C)O
category-label: 1

stdin: Quick check: FICI of C[C@H]1c2cccc(O)c2C(=O)C2=C(O)[C@]3(O)C(=O)C(C(N)=O)=C(O)[C@@H](N(C)C)[C@@H]3[C@@H](O)[C@@H]21 under 0.3?
stdout: 1

* * *

Tested on: P. aeruginosa AUMC-Pa-3
Assay: microbe, parasite or virus in culture
Details: Pseudomonas aeruginosa, AUMCPA3, 18 h, read-out: MICa: MIC of the antibiotic
// MIC lookup, one value per entry

Reference set (6 entries):
compound: CC1COc2c(N3CCN(C)CC3)c(F)cc3c(=O)c(C(=O)O)cn1c23 (stereo not shown)
MIC: 1 µM
--
compound: C[C@H]1COc2c(N3CCN(C)CC3)c(F)cc3c(=O)c(C(=O)O)cn1c23
MIC: 0.5 µM
--
compound: C[C@@H](O)[C@H]1C(=O)N2C(C(=O)O)=C(S[C@@H]3CN[C@H](C(=O)N(C)C)C3)[C@H](C)[C@H]12
MIC: 0.25 µM
--
compound: CO[C@@H]1[C@@H](OC(N)=O)[C@@H](O)[C@H](Oc2ccc3c(O)c(NC(=O)c4ccc(O)c(CC=C(C)C)c4)c(=O)oc3c2C)OC1(C)C
MIC: > 128 µM
--
compound: CCn1cc(C(=O)O)c(=O)c2ccc(C)nc21
MIC: > 128 µM
--
compound: CO[C@@H]1[C@@H](OC(=O)c2ccc(C)[nH]2)[C@@H](O)[C@H](Oc2ccc3c(O)c(NC(=O)c4ccc(O)c(CC=C(C)C)c4)c(=O)oc3c2Cl)OC1(C)C
MIC: 0.5 µM

stdin: Fill in: MIC of C[C@@H]1O[C@@H]1P(=O)(O)O is ___
stdout: > 128 µM

stdin: Now give it for COc1cc(Cc2cnc(N)nc2N)cc(OC)c1OC too.
stdout: > 128 µM

stdin: Same thing, different compound: CO[C@H]1/C=C/O[C@@]2(C)Oc3c(C)c(O)c4c(O)c(c(/C=N/N5CCN(C6CCCC6)CC5)c(O)c4c3C2=O)NC(=O)/C(C)=C\C=C\[C@H](C)[C@H](O)[C@@H](C)[C@@H](O)[C@@H](C)[C@H](OC(C)=O)[C@@H]1C
stdout: 8 µM

stdin: Cool, now CO[C@H]1/C=C/O[C@@]2(C)Oc3c(C)c(O)c4c(O)c(c(/C=N/N5CCN(C)CC5)c(O)c4c3C2=O)NC(=O)/C(C)=C\C=C\[C@H](C)[C@H](O)[C@@H](C)[C@@H](O)[C@@H](C)[C@H](OC(C)=O)[C@@H]1C
stdout: 16 µM

Data credit: paper PMC8445441
